Test system: velvetleaf
Test: Test C pre-/postemergence herbicide test
Type: in vivo, Abutilon theophrasti
Conditions: Preemergence, 62 g ai/ha; scale 0 to 100
attributeMeasured: Plant response rating, Velvetleaf
One number for each entry.

Worked examples, 4 compounds total:
compound	observedValue
O=C1NCC(c2ccc(F)c(F)c2)C1C(=O)Nc1cccc(F)c1F (centres unmarked)	0
O=C1NCCC1C(=O)N(c1ccc(F)c(F)c1)c1ccccc1F (centres unmarked)	0
O=C1NCC(c2ccc(Cl)c(Cl)c2)C1C(=O)Nc1ccccc1F (racemic)	0
O=C1NCC(c2cccc(OC(F)(F)F)c2)C1C(=O)Nc1ccccc1F (centres unmarked)	30

Then there is this compound:
// compound O=C1NCC(c2ccc(C(F)(F)F)cc2)C1C(=O)Nc1cccc(F)c1F (centres unmarked) , assay velvetleaf, Plant response rating, Velvetleaf value: 30

* * *

Hi there, I'd appreciate the recorded Nutsedge, Yellow plant response rating for every entry that follows.
System: nutsedge, yellow
Assay: Test C pre-/postemergence herbicide test
Assay type: in vivo, Cyperus esculentus
Settings: Preemergence, 31 g ai/ha; scale 0 to 100, 0 is no effect and 100 is complete control

Worked examples, 2 compounds total:
compound	attributeMeasured	observedValue
O=C1NCC(c2ccc(C(F)(F)F)cc2)C1C(=O)Nc1ccccc1F (stereo not drawn)	Nutsedge, Yellow plant response rating	0
CN1CC(c2ccc(F)c(F)c2)C(C(=O)Nc2cccc(F)c2F)C1=O (stereo not drawn)	Nutsedge, Yellow plant response rating	0

Would you mind giving Nutsedge, Yellow plant response rating for every compound in the list below?
1. O=C1NCC(c2cccc(OC(F)F)c2)C1C(=O)Nc1ccccc1F (stereo not drawn)
2. O=C1NCC(c2cccc(OC(F)(F)F)c2)C1C(=O)Nc1ccccc1F (stereo not drawn)
3. CC(C)c1cccc(C2CNC(=O)C2C(=O)Nc2cccc(F)c2F)c1 (stereo not drawn)
4. O=C1NCC(c2cccc(C(F)(F)F)c2)C1C(=O)Nc1ccc(F)c(F)c1F (stereo not drawn)

*A*
1. 20
2. 0
3. 0
4. 0

* * *

Test system: blackgrass
Assay: Test A postemergence herbicide test
Assay type: in vivo, Alopecurus myosuroides
Conditions: 500 g ai/ha
Label MET when Blackgrass plant response rating (0 to 100 scale, 0 is no effect, 100 is complete control) < 30; otherwise NOT MET.

Example entries begin here.
molecule	assignedCategory
O=C1NCC(c2ccc3c(c2)OC(F)(F)O3)C1C(=O)Nc1ccc(F)c(F)c1F (racemic) [Compound 162]	NOT MET
COc1ccc(NC(=O)C2C(=O)NCC2c2cccc(C(F)(F)F)c2)cc1F (racemic) [Compound 188]	MET
O=C1NCC(c2cccc(C(F)F)c2)C1C(=O)Nc1ccccc1F (racemic) [Compound 210]	NOT MET
O=C1NC[C@@H](c2cccc(C(F)(F)F)c2)[C@@H]1C(=O)Nc1cccc(F)c1F [Compound 205]	NOT MET
O=C1NCC(c2cccc(S(F)(F)(F)(F)F)c2)C1C(=O)Nc1cccc(F)c1F (stereo not drawn) [Compound 214]	NOT MET
Cc1ccc(C2CNC(=O)C2C(=O)Nc2ccc(F)c(F)c2F)cc1F (racemic) [Compound 147]	NOT MET

*Q* Decide: Blackgrass plant response rating (0 to 100 scale, 0 is no effect, 100 is complete control) of Cc1ccc(C2CNC(=O)C2C(=O)Nc2ccc(F)cc2F)cc1 (racemic) [Compound 150] strictly below 30?
*A* MET

*Q* Decide: Blackgrass plant response rating (0 to 100 scale, 0 is no effect, 100 is complete control) of Cc1cc(C2CNC(=O)C2C(=O)Nc2ccc(F)cc2F)ccc1F (racemic) [Compound 140] strictly below 30?
*A* MET

*Q* Decide: Blackgrass plant response rating (0 to 100 scale, 0 is no effect, 100 is complete control) of O=C1NCC(c2ccc(Cl)cc2)C1C(=O)Nc1cccc(F)c1F (stereo not drawn) [Compound 218] strictly below 30?
*A* NOT MET

*Q* Decide: Blackgrass plant response rating (0 to 100 scale, 0 is no effect, 100 is complete control) of COc1cc(C2CNC(=O)C2C(=O)Nc2ccc(F)c(F)c2F)ccc1F (racemic) [Compound 132] strictly below 30?
*A* MET
